These entries and their values trace back to ChEMBL document CHEMBL4513216.

experiment: Toxicity liver stage against HepG2, at 10uM; type: cell-based; set-up: test concentration 10 uM, cell line HepG2-A16-CD81EGFP; conditions: human, HepG2-A16-CD81EGFP cells; read-out: INHIBITION
Measured cytotoxicity at 10 µM, listed per entry.
Give just the number in %; leave the unit off.

The compound identified as CCOCCN1CCN(CC(=O)NC2(C#N)CCCC2)CC1CC (stereo not given) registered its cytotoxicity at 10 µM at 7.73

The compound identified as COc1ccc(NC(C)=O)cc1S(=O)(=O)Nc1ccon1 registered its cytotoxicity at 10 µM at 1.08

The compound identified as O=C1OCCN1CC(=O)N1C[C@@H]2CC[C@H]1CN(C(=O)c1ccccn1)C2 registered its cytotoxicity at 10 µM at 13.5

The compound identified as COc1cc2nc(C)n(CC(=O)NCCO)c(=O)c2cc1OC registered its cytotoxicity at 10 µM at -8.12

The compound identified as N#Cc1cccc(NS(=O)(=O)c2ccc(C(=O)O)cc2F)c1 registered its cytotoxicity at 10 µM at -3.67

The compound identified as O=C(CCN1CCCC1c1cccc(F)c1)N1CCc2sccc2C1 (stereo not given) registered its cytotoxicity at 10 µM at -10.7

The compound identified as Cc1cc(CN(C)CC2CCCN(CCc3ccc(Cl)cc3)C2)[nH]n1 (stereo not given) registered its cytotoxicity at 10 µM at -12.5

The compound identified as CCC(=O)Nc1ccc2c(c1)C1(CCOCC1)CN2CCOC registered its cytotoxicity at 10 µM at -99

The compound identified as Cc1nc2ccccn2c1CC(=O)N[C@@H]1CCC[C@@H](N2CCCC2)[C@@H]1O registered its cytotoxicity at 10 µM at -5.13

The compound identified as Cc1ncsc1CN1C[C@@H]2COC[C@]2(COc2ccc(C#N)cn2)C1 registered its cytotoxicity at 10 µM at -25.6
